Biological target: T1, NDP52(1-126) (human, UniProt Q13137 1-126)
T1 sequence (looked up): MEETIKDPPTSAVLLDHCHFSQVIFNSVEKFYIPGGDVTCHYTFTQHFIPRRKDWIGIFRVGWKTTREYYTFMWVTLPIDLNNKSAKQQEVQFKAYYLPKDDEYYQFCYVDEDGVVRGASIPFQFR
Assay: ITC
pKd: −log10 of the molar value.
READOUT_LABEL: pKd

• ESVASHFALVTAYEDIKKRLKDSEKENSLLKKRIRFLEEKLIA (domain or fragment, human, UniProt Q9H6S1 33-75, looked up) [NAP1(33-75)] = ~5.94
• NAP1(1-75) (domain or fragment, human, UniProt Q9H6S1 1-75, looked up) MDALVEDDICILNHEKAHKRDTVTPVSIYSGDESVASHFALVTAYEDIKKRLKDSEKENSLLKKRIRFLEEKLIA = ~5.74
• NAP1(1-85) (domain or fragment, human, UniProt Q9H6S1 1-85, looked up) MDALVEDDICILNHEKAHKRDTVTPVSIYSGDESVASHFALVTAYEDIKKRLKDSEKENSLLKKRIRFLEEKLIARFEEETSSVG = ~5.83
